Measured Property: melting point

Examples with answers:
Ask | Look up melting point: Cc1nn(CC(O)c2ccc(Cl)cc2)c(=O)n1-c1ccc(N2CCN(c3ncc(O)cn3)CC2)cc1 (centres undefined)
Reply | 244 °C

Ask | Then this compound: CCC(=O)Nc1cccc2c1C(=O)c1cccc(NC(=O)CC)c1C2=O
Reply | 321 °C

Ask | Same question for NC(=O)n1ccc(-c2ccc(Oc3ccc(F)cc3)cc2)n1 please.
Reply | 141 to 143 °C

Ask | Lookup Fc1cccc(CCc2nnc(-c3ccnc(NCCCc4ccccc4)c3)o2)c1
Reply | 91 to 92 °C

Ask | Next: COc1ccc2nc(-c3ccc4c(c3)NC(=O)C4(C)C)[nH]c2c1
Reply | 85 to 90 °C

Okay, next one:
Ask | Value lookup for melting point; key = CC(C)(C)OC(=O)NCCC(=O)NCc1cccc2c1C(=O)N(C1CCC(=O)NC1=O)C2=O (centres undefined)
Reply | 96 to 98 °C

----------
In this section, each of the compounds is paired with its reported melting point.

Worked set:
Ask | So what's the measured melting point for this one? CC(O)c1cccc(OCc2cccc(C(=O)O)c2)c1 (centres undefined)
Reply | 115 to 117 °C

Ask | Also CCOc1cc(C(CC(=O)OC)N2C(=O)c3ccc(N)cc3C2=O)ccc1OC (centres undefined) , if possible.
Reply | 65 to 67 °C

Ask | Same read-out for CCOC(=O)C=Cc1ccc(OC)c(OC)c1 ?
Reply | 53 to 55 °C

Ask | Also, Cc1ccc(NC(=O)OC2CCCCC2)cc1NC(=O)OC1CCCCC1 please.
Reply | 156 °C

***
Ask | Which melting point value belongs to CCn1c(=O)c(C(N)=O)c(O)c2ccc(C)nc21 ?
Reply | 240 to 242 °C

----------
melting point values for the compounds below.

Ask | Recorded melting point of CN(Cc1ccc(-c2ccc(OCc3nnn[nH]3)c(Br)c2)cc1)C(=O)c1cn(C)c2ccccc12 , please.
Reply | 239 °C

---
Ask | Fill blank: measured melting point of the compound CN(C)CCC1(CO)c2ccccc2N(C)c2cc(Cl)ccc21 (centres undefined) is ____.
Reply | 120 °C

Ask | Same thing, different compound: CN(C)CCNC(=O)N1CCN(c2ccc([N+](=O)[O-])cc2)CC1
Reply | 115 to 120 °C

Ask | Now consider Cc1ccccc1C(CCC(=O)O)Oc1cc(OCc2ccsc2)ccc1C(=O)C=Cc1ccccn1 (racemic) .
Reply | 65 to 70 °C

Ask | Entry CC(C)(C)c1cc(C(=O)c2ccc([N+](=O)[O-])cc2)cc(C(C)(C)C)c1O please
Reply | 178 to 180 °C

Ask | Param item: Cc1oc(-c2ccccc2)nc1C(O)c1cc2cc(Br)ccc2o1 (centres undefined)
Reply | 152 to 154 °C

Ask | Subsequent entry: Cc1nc2cc(Cl)ccc2c2ccccc12
Reply | 129 to 131 °C

Ask | Field entry: O=C(O)c1c(F)c(Cl)c(O)c(Cl)c1F
Reply | 102 to 105 °C

Ask | Request: O=C(Nc1nc2ccccc2s1)c1ccccc1C(c1ccc(O)cc1)c1ccc(O)cc1
Reply | 140 to 141 °C

----------
Attribute: melting point

For orientation, consider the following solved cases.
Ask | // melting point lookup, key: Cc1cnc(CNC(=O)c2sc(-n3cnn(Cc4ccc(F)cc4)c3=O)cc2C)cn1
Reply | 189 to 191 °C

Ask | Field entry: CN(CCO)Cc1cc(C(=O)c2cccs2)cc(C(C)(C)C)c1O
Reply | 98 to 100 °C

---
Ask | Can you look up the measured melting point of COC(=O)c1c(Cl)cc(Cl)cc1NC(=O)CSc1ccc(NC(=O)c2cccnc2)cc1 for me?
Reply | 156 to 159 °C

Ask | What about this molecule? COC(=O)c1ccc2cc(OCc3ccccc3)ccc2c1
Reply | 148 to 149 °C

Ask | CCOC(=O)c1cn(-c2cc(NC(=O)OC(C)(C)C)c(F)cc2F)c2cc(F)c(C)cc2c1=O ?
Reply | 205 to 207 °C

Ask | Follow-up item: CC(C)OC(=O)C1C2CCC(C2)C1n1cc(F)c(=O)[nH]c1=O (centres undefined)
Reply | 135 to 136 °C

Ask | Please answer likewise for CC(C)(COC(=O)OOC(=O)OCC(C)(C)c1ccccc1)c1ccccc1
Reply | 59 to 60 °C

Ask | Likewise for Nc1ccccc1Nc1ccc(Oc2ccc(C(c3ccc(Oc4ccc(Nc5ccccc5N)cc4)cc3)(C(F)(F)F)C(F)(F)F)cc2)cc1 ?
Reply | 62.4 to 64.1 °C

Ask | Try the molecule Cc1cn(N=Cc2ccccc2)cn1
Reply | 91 to 93 °C

----------
Below is a list of entries, each paired with its recorded melting point value.
Return type: number; implicit unit °C.

Ask | Request the reported melting point associated with CCC1c2c(ncn2C)CCN1C(=O)NC(C)C (stereo not given)
Reply | 220

Continuing:
Ask | melting point for COCCn1c(SC)nc(-c2ccc(F)cc2)c1-c1ccnc(Nc2ccccc2)c1 ?
Reply | 108

----------
# melting point listing for each entry below

Ask | Which melting point is listed for COC(=O)c1cc(C(C)C)c(OS(=O)(=O)NC(=O)Cc2c(C(C)C)cc(C(C)C)cc2C(C)C)c(C(C)C)c1 ?
Reply | 144 to 146 °C

Ask | How about this molecule: CCC(Oc1cncc(Br)c1)C(=O)O (stereo not given)
Reply | 100 to 102 °C

Ask | And for COC(=O)c1nccnc1Cl ?
Reply | 30 °C

Ask | Also CS(=O)(=O)NCc1ccc2[nH]cc(C(=O)C(=O)N3CCCC3)c2c1 , if possible.
Reply | 235 to 236 °C

Ask | Can you check COC(=S)CCC[C@@H](O)[C@@H](c1ccccc1)c1ccc2ccccc2c1 (relative stereo) next?
Reply | 90 °C

Others:
Ask | Fill in: melting point of CSC1=Nc2ccccc2Cn2nnnc21 is ___
Reply | 105 to 108 °C

Ask | Ok, now COc1cc(F)ccc1C(O)C1CCCCn2c1nc(-c1ccncn1)cc2=O (racemic)
Reply | 235 to 237 °C

Ask | Repeat for the following molecule: COc1cc(NC(=O)OC(C)(C)C)c(NC(=O)CC(=O)c2cccc(-n3ccnc3C)c2)cc1-c1ccccc1F
Reply | 83 to 86 °C

Ask | Another molecule: COC(=O)C1c2c(C)c(O)c(C)c(C)c2OC1(C)C (stereo not given)
Reply | 145 to 146 °C

Ask | Thanks! And NC1=NC(c2cccc(-c3cccnc3F)c2)(c2ccc3c(c2)OC(F)(F)O3)C2=NCCCN12 (stereo not given) ?
Reply | 95 to 99 °C

----------
Measured Property: melting point

Ask | // melting point lookup, key: Cc1ccc(C=Cc2ccccc2)cc1
Reply | 117 °C

Ask | // query: CCOC(=O)C1=C(C)NC(c2cscn2)=NC1c1cccc(Cl)c1 (stereo unspecified)
Reply | 105 to 108 °C

Ask | Record: COCCOC[C@H](CC1(C(=O)N[C@H]2CC[C@@H](C(=O)O)CC2)CCCC1)C(=O)O
Reply | 108 °C

Continuing:
Ask | What melting point value was documented for this compound, CCC(=O)c1cc(Cl)c(C)cc1OC ?
Reply | 79 °C

Ask | Proceed to CN1N=C(c2ccc(F)cc2)c2ccc(Cl)cc2CS1(=O)=O
Reply | 250 to 251 °C

Ask | Query CC(=O)O[C@@H]1CC(c2ccccc2)(c2ccccc2)[C@@H]2CN(Cc3ccccc3)C[C@@H]2C1=O (racemic) next
Reply | < 40 °C

Ask | Now the same for CCCCOC(=O)N1CCSCC1
Reply | 72.9 to 78.9 °C

Ask | And what about the compound CCc1cc(C(=O)c2ccccc2Cl)c(-n2nnnc2CNC(=O)c2cc3ccccc3[nH]2)s1 ?
Reply | 146 to 149 °C

Ask | Follow-up entry: c1ccc2c(c1)c1ccccc1n2-c1ccc(-n2ccnc2-c2nccn2-c2ccc(-n3c4ccccc4c4ccccc43)cc2)cc1
Reply | 270 to 274 °C

Ask | And for S=c1[nH]c2cccnc2n1-c1ccc2c(c1)OCO2 ?
Reply | 278 °C

Ask | What do you have for COc1ccc(C2CNC(=O)NC2)cc1OCCCCc1ccccc1 ?
Reply | 142 to 143 °C

Ask | Also C=CC1CCC2C3CC=C4CC(O)CCC4(C)C3CCC12C (stereo unspecified) ?
Reply | 132 to 135 °C

Ask | Another compound: O=C(O)c1c(O)cccc1-c1ccccc1
Reply | 143 to 146 °C

Ask | Thanks! And Cc1csc(C)c1NCc1nnc(S)n1C ?
Reply | 184 to 187 °C

Ask | Now the same for O=C1CCCc2c(-c3ccncc3)sc(-c3ccncc3)c21
Reply | 157 to 160 °C

Ask | Try this compound too: O=C(NCCO[N+](=O)[O-])Oc1ccccc1
Reply | 61 to 62 °C

Ask | Thanks! And COc1ccc(Nc2cc(=O)n(-c3ccc(Cl)cc3)nc2-c2nc[nH]n2)cc1 ?
Reply | 251 to 252 °C

Ask | Do the same for COc1nc(N)nc2c1ncn2COC(CO)CO please
Reply | 162 to 163 °C
